- System: NCI-H2228
- experimental_protocol: relative viability (nuclei count vs DMSO), 5 days (fraction); higher = more cells survive
- run_conditions: first compound 8 µM
experimental_readout: relative viability
Number only, no unit.

Past entries and their recorded results:
compound: C=C1C(=O)O[C@@H](CCCCCCCC)[C@@H]1C(=O)O [C-75] + CC(=O)c1c(C)c2cnc(Nc3ccc(N4CCNCC4)cn3)nc2n(C2CCCC2)c1=O [Palbociclib] (partner 0.5 µM)
target_entity: NCI-H2228
data_value: 0.681
//
compound: C=C1C(=O)O[C@@H](CCCCCCCC)[C@@H]1C(=O)O [C-75] + CS(=O)(=O)N1CCN(Cc2cc3nc(-c4cccc5[nH]ncc45)nc(N4CCOCC4)c3s2)CC1 [Pictilisib] (partner 1 µM)
target_entity: NCI-H2228
data_value: 0.324
//
compound: C=C1C(=O)O[C@@H](CCCCCCCC)[C@@H]1C(=O)O [C-75] + CC(=O)Nc1cccc(-n2c(=O)n(C3CC3)c(=O)c3c(Nc4ccc(I)cc4F)n(C)c(=O)c(C)c32)c1 [Trametinib] (partner 0.02 µM)
target_entity: NCI-H2228
data_value: 0.519
//
compound: C=C1C(=O)O[C@@H](CCCCCCCC)[C@@H]1C(=O)O [C-75] + COc1cc2c(Oc3ccc(NC(=O)C4(C(=O)Nc5ccc(F)cc5)CC4)cc3F)ccnc2cc1OCCCN1CCOCC1 [Foretinib] (partner 0.25 µM)
target_entity: NCI-H2228
data_value: 0.863

Looking for the measured relative viability of C=C1C(=O)O[C@@H](CCCCCCCC)[C@@H]1C(=O)O [C-75] + N=C(N)NC(=N)NCCc1ccccc1 [Phenformin] (partner 250 µM) , can you help?
0.277

###

- Tested on: NCI-H1395
- experimental_protocol: relative viability (nuclei count vs DMSO), 5 days (fraction); higher = more cells survive
- run_conditions: first compound 0.08 µM
Just so you know, the groups by relative viability go like this: lower (below 0.7), middle (0.7 to below 1), upper (1 or more)

Some entries whose results are on file:
molecule: C=C1C(=O)O[C@@H](CCCCCCCC)[C@@H]1C(=O)O [C-75] + O=C(c1cc(Cc2n[nH]c(=O)c3ccccc23)ccc1F)N1CCN(C(=O)C2CC2)CC1 [Olaparib] (partner 8 µM)
discrete_label: lower
--
molecule: C=C1C(=O)O[C@@H](CCCCCCCC)[C@@H]1C(=O)O [C-75] + N=C(N)NC(=N)NCCc1ccccc1 [Phenformin] (partner 250 µM)
discrete_label: lower
--
molecule: C=C1C(=O)O[C@@H](CCCCCCCC)[C@@H]1C(=O)O [C-75] + C[C@]1(O)C[C@@H](c2nc(-c3ccc4ccc(-c5ccccc5)nc4c3)c3c(N)nccn32)C1 [Linsitinib] (partner 1 µM)
discrete_label: upper
--
molecule: Oc1nc(-c2ccc(C(F)(F)F)cc2)nc2c1CSCC2 [XAV939] + Nc1ncn([C@H]2C[C@H](O)[C@@H](CO)O2)c(=O)n1 [Decitabine] (partner 2 µM)
discrete_label: middle
--
molecule: Oc1nc(-c2ccc(C(F)(F)F)cc2)nc2c1CSCC2 [XAV939] + CC1(C)CCC(c2ccc(Cl)cc2)=C(CN2CCN(c3ccc(C(=O)NS(=O)(=O)c4ccc(N[C@H](CCN5CCOCC5)CSc5ccccc5)c(S(=O)(=O)C(F)(F)F)c4)cc3)CC2)C1 [Navitoclax] (partner 0.5 µM)
discrete_label: upper

Proceed to the following item.
Sort into band: C=C1C(=O)O[C@@H](CCCCCCCC)[C@@H]1C(=O)O [C-75] + Nc1ncn([C@H]2C[C@H](O)[C@@H](CO)O2)c(=O)n1 [Decitabine] (partner 2 µM)
middle

###

- Test system: NCI-H727
- experimental_protocol: relative viability (nuclei count vs DMSO), 5 days (fraction); higher = more cells survive
- run_conditions: first compound 0.01 µM
Listed below: relative viability values for each entry.

Past entries and their recorded results:
compound: NC(=O)Nc1cc(-c2cccc(F)c2)sc1C(=O)N[C@H]1CCCNC1 [AZD7762] + CS(=O)(=O)CCNCc1ccc(-c2ccc3ncnc(Nc4ccc(OCc5cccc(F)c5)c(Cl)c4)c3c2)o1 [Lapatinib] (partner 2 µM)
relative viability: 0.891

compound: NC(=O)Nc1cc(-c2cccc(F)c2)sc1C(=O)N[C@H]1CCCNC1 [AZD7762] + Cc1nc(Nc2ncc(C(=O)Nc3c(C)cccc3Cl)s2)cc(N2CCN(CCO)CC2)n1 [Dasatinib] (partner 0.075 µM)
relative viability: 0.374

Please turn your attention to the following entry.
Looking for the measured relative viability of NC(=O)Nc1cc(-c2cccc(F)c2)sc1C(=O)N[C@H]1CCCNC1 [AZD7762] + CCNC(=O)c1noc(-c2cc(C(C)C)c(O)cc2O)c1-c1ccc(CN2CCOCC2)cc1 [Luminespib] (partner 0.01 µM) , can you help?
0.24

###

- System: NCI-H2126
- experimental_protocol: relative viability (nuclei count vs DMSO), 5 days (fraction); higher = more cells survive
- run_conditions: first compound 0.03162 µM
experimental_readout: relative viability
Number only, no unit.

molecule: NC(=O)Nc1cc(-c2cccc(F)c2)sc1C(=O)N[C@H]1CCCNC1 [AZD7762] + CC(=O)Nc1cccc(-n2c(=O)n(C3CC3)c(=O)c3c(Nc4ccc(I)cc4F)n(C)c(=O)c(C)c32)c1 [Trametinib] (partner 0.02 µM)
relative viability: 0.629

Checklist item: relative viability tested on NCI-H2126, entry NC(=O)Nc1cc(-c2cccc(F)c2)sc1C(=O)N[C@H]1CCCNC1 [AZD7762] + Nc1ncn([C@H]2C[C@H](O)[C@@H](CO)O2)c(=O)n1 [Decitabine] (partner 2 µM) , value?
0.628

Checklist item: relative viability tested on NCI-H2126, entry NC(=O)Nc1cc(-c2cccc(F)c2)sc1C(=O)N[C@H]1CCCNC1 [AZD7762] + Cc1nc(NC(=O)N2CCC[C@H]2C(N)=O)sc1-c1ccnc(C(C)(C)C(F)(F)F)c1 [Alpelisib] (partner 2 µM) , value?
0.775

Checklist item: relative viability tested on NCI-H2126, entry NC(=O)Nc1cc(-c2cccc(F)c2)sc1C(=O)N[C@H]1CCCNC1 [AZD7762] + C[C@@H](Oc1cc(-c2cnn(C3CCNCC3)c2)cnc1N)c1c(Cl)ccc(F)c1Cl [Crizotinib] (partner 1 µM) , value?
1.01

Checklist item: relative viability tested on NCI-H2126, entry NC(=O)Nc1cc(-c2cccc(F)c2)sc1C(=O)N[C@H]1CCCNC1 [AZD7762] + Cc1nc(Nc2ncc(C(=O)Nc3c(C)cccc3Cl)s2)cc(N2CCN(CCO)CC2)n1 [Dasatinib] (partner 0.075 µM) , value?
0.665

Checklist item: relative viability tested on NCI-H2126, entry NC(=O)Nc1cc(-c2cccc(F)c2)sc1C(=O)N[C@H]1CCCNC1 [AZD7762] + O=C(CCCCCCC(=O)Nc1ccccc1)NO [Vorinostat] (partner 1 µM) , value?
0.867

###

- System: UMC-11
- experimental_protocol: relative viability (nuclei count vs DMSO), 5 days (fraction); higher = more cells survive
- run_conditions: first compound 0.03162 µM
experimental_readout: relative viability
Number only, no unit.

Past entries and their recorded results:
compound: NC(=O)Nc1cc(-c2cccc(F)c2)sc1C(=O)N[C@H]1CCCNC1 [AZD7762] + O=C(c1cc(Cc2n[nH]c(=O)c3ccccc23)ccc1F)N1CCN(C(=O)C2CC2)CC1 [Olaparib] (partner 8 µM)
relative viability: 0.342
--
compound: NC(=O)Nc1cc(-c2cccc(F)c2)sc1C(=O)N[C@H]1CCCNC1 [AZD7762] + O=C(CCCCCCC(=O)Nc1ccccc1)NO [Vorinostat] (partner 1 µM)
relative viability: 0.297

Looking for the measured relative viability of NC(=O)Nc1cc(-c2cccc(F)c2)sc1C(=O)N[C@H]1CCCNC1 [AZD7762] + CS(=O)(=O)N1CCN(Cc2cc3nc(-c4cccc5[nH]ncc45)nc(N4CCOCC4)c3s2)CC1 [Pictilisib] (partner 1 µM) , can you help?
0.768

Looking for the measured relative viability of NC(=O)Nc1cc(-c2cccc(F)c2)sc1C(=O)N[C@H]1CCCNC1 [AZD7762] + C[C@]1(O)C[C@@H](c2nc(-c3ccc4ccc(-c5ccccc5)nc4c3)c3c(N)nccn32)C1 [Linsitinib] (partner 1 µM) , can you help?
0.956

Looking for the measured relative viability of NC(=O)Nc1cc(-c2cccc(F)c2)sc1C(=O)N[C@H]1CCCNC1 [AZD7762] + CC(=O)Nc1cccc(-n2c(=O)n(C3CC3)c(=O)c3c(Nc4ccc(I)cc4F)n(C)c(=O)c(C)c32)c1 [Trametinib] (partner 0.02 µM) , can you help?
0.696

Looking for the measured relative viability of NC(=O)Nc1cc(-c2cccc(F)c2)sc1C(=O)N[C@H]1CCCNC1 [AZD7762] + Nc1ncn([C@H]2C[C@H](O)[C@@H](CO)O2)c(=O)n1 [Decitabine] (partner 2 µM) , can you help?
0.591

Looking for the measured relative viability of NC(=O)Nc1cc(-c2cccc(F)c2)sc1C(=O)N[C@H]1CCCNC1 [AZD7762] + C[C@@H](Oc1cc(-c2cnn(C3CCNCC3)c2)cnc1N)c1c(Cl)ccc(F)c1Cl [Crizotinib] (partner 1 µM) , can you help?
0.421
